B1: CPEB3 Ribozyme (parent)
chain: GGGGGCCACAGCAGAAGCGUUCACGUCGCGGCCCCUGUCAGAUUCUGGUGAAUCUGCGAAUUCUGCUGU

Variants of: B1
Procedure Details: self-cleavage, relative activity (ratio to wild type); higher = more cleavage; co-transcriptional
Lab note: anything with self-cleavage at or over 0.3 counts as met; the rest go in not met.

| Sequence Data | Answer Label |
| --- | --- |
| GGGGGCCACAGCAGAAGCGUUCACGUCGCGGCCCCUGUCAGAUUAUGGCGAAUCUGCGAAUUCUGCUGU | met |
| GGGGGCCACAGCAGAAGCGUUCACGACGCGACCCCUGUCAGAUUCUGGUGAAUCUGCGAAUUCUGCUGU | met |
| GGGGGCCACAGCAGAAGCGUCCACGUCGCCGCCCCUGUCAGAUUCUGGUGAAUCUGCGAAUUCUGCUGU | not met |
| GGGCGCCACAGCAGAAGCGUUCACGUCGCGGCCCCUGGCAGAUUCUGGUGAAUCUGCGAAUUCUGCUGU | not met |
| GGGGGCCACAGCAGAAACGUUCACGUCGCGGCCCCAGUCAGAUUCUGGUGAAUCUGCGAAUUCUGCUGU | not met |
| GGGGGCCACAGCAGAAGCGUACACGUCGCGGCCCCUGUCAGAUUCUGGUGAAUCUGCGAAUUCUGGUGU | met |
| GGGGGCCACAGCAGAAGCGUUCACGUCGCGGCCCCAGUCAGAUUCUGGUGAAUCUGCGACUUCUGCUGU | not met |
| GGGGGCCACAGCAGAAGCGUCCACGUCGCGGCCCCUGUCAGAUUCUGGUGAAUAUGCGAAUUCUGCUGU | met |
| GGGGUCCACAGCAGAAGCGUUCGCGUCGCGGCCCCUGUCAGAUUCUGGUGAAUCUGCGAAUUCUGCUGU | not met |
| GGGGGCCACAGCAGAAGCGUUCACGUCGCGGCCCCUGUCAGAUUCUAGUGAACCUGCGAAUUCUGCUGU | met |
| GGGGGCCACAGCAGAAGCGUUCACGUCGUGGCCCCUGUCAGAUUCUGGUGAAUCUGCGAAUUCUACUGU | not met |
| GGGGGCGACAGCAGAAGCGUUCACGUCGCGGCCCCUGUCAGAUUCUGGUGAAACUGCGAAUUCUGCUGU | not met |
| GGGUGCCACAGCAGAAGCGUUCACGUCGCGGCCCCUGUCAGUUUCUGGUGAAUCUGCGAAUUCUGCUGU | met |
| GGGGGCAACAGCAGAAGCGUUCACGUCGCGGCCCCUGUCAGAUUCUGGGGAAUCUGCGAAUUCUGCUGU | met |
| GGGGGCCACAGCAGAAGCGUUCACGUCGCGGACCCUGUCAGAUUCUGGUGAAUCUGCGAAUUCUGCCGU | met |
| GGGGGCCACAGCAGAUGCGUUCACGCCGCGGCCCCUGUCAGAUUCUGGUGAAUCUGCGAAUUCUGCUGU | met |
| GGGGGACACGGCAGAAGCGUUCACGUCGCGGCCCCUGUCAGAUUCUGGUGAAUCUGCGAAUUCUGCUGU | met |
| GGGGGCCACAGCACAAGCGUUCAUGUCGCGGCCCCUGUCAGAUUCUGGUGAAUCUGCGAAUUCUGCUGU | not met |
| GGGGGCCACAGCAGAAGCGUUCAAGUCGCGGCCCCUGUCAGAUUCGGGUGAAUCUGCGAAUUCUGCUGU | met |
| GGGGGCCACAGCAGAAGCGUUCACGUCGCGGCCCCUGUAAGAUUCUGGUGAUUCUGCGAAUUCUGCUGU | met |
| GGGGGCCACAGCAGAAGCGUUCACUUCGCGGCCCCUGUCAGCUUCUGGUGAAUCUGCGAAUUCUGCUGU | not met |
| GGGGGCCACAGUAGAGGCGUUCACGUCGCGGCCCCUGUCAGAUUCUGGUGAAUCUGCGAAUUCUGCUGU | met |
